# System: FLT3 (human), P36888 [N841I]
# test_description: KINOMEscan competition binding
# reported_conditions: compound 10.0 µM
Classes by kinase still bound, per cent of control: low end: < 10%; middle: ≥ 10% and < 60%; high end: ≥ 60%

Record COc1cc2ncnc(Nc3cccc(Cl)c3)c2cc1OC — which class? low end

Record COc1cc(C(=O)NC2CCN(C)CC2)ccc1Nc1ncc2c(n1)N(C1CCCC1)CCC(=O)N2C(C)C — which class? high end

Record Cc1ccc2nc(NCCN)c3ncc(C)n3c2c1 — which class? middle

Record COc1cc(N2CCC(C(N)=O)CC2)ccc1Nc1nc(N)c(Cl)c(Nc2ccccc2S(=O)(=O)C(C)C)n1 — which class? middle

Record N#Cc1c(NC(=O)c2cccc3ccccc23)sc2c1CCCC2 — which class? high end

Record N#Cc1cc(-c2ccnc(Nc3ccc(-n4cnc(-c5cccnc5)n4)cc3)n2)cc(N2CCOCC2)c1 — which class? middle

Record C=CC(=O)Nc1cccc(Nc2nc(N[C@H]3CC[C@H](N(C)C)CC3)nc3c2ncn3C(C)C)c1 — which class? low end

Record C=CC(=O)Nc1ccc(C(=O)c2sc(Nc3ccc(N4CCN(C)CC4)cc3OC)nc2N)cc1 — which class? middle

---

# test_system: CDC42BPA (human) (UniProt Q5VT25)
# Sequence (Q5VT25 whole entry, looked up): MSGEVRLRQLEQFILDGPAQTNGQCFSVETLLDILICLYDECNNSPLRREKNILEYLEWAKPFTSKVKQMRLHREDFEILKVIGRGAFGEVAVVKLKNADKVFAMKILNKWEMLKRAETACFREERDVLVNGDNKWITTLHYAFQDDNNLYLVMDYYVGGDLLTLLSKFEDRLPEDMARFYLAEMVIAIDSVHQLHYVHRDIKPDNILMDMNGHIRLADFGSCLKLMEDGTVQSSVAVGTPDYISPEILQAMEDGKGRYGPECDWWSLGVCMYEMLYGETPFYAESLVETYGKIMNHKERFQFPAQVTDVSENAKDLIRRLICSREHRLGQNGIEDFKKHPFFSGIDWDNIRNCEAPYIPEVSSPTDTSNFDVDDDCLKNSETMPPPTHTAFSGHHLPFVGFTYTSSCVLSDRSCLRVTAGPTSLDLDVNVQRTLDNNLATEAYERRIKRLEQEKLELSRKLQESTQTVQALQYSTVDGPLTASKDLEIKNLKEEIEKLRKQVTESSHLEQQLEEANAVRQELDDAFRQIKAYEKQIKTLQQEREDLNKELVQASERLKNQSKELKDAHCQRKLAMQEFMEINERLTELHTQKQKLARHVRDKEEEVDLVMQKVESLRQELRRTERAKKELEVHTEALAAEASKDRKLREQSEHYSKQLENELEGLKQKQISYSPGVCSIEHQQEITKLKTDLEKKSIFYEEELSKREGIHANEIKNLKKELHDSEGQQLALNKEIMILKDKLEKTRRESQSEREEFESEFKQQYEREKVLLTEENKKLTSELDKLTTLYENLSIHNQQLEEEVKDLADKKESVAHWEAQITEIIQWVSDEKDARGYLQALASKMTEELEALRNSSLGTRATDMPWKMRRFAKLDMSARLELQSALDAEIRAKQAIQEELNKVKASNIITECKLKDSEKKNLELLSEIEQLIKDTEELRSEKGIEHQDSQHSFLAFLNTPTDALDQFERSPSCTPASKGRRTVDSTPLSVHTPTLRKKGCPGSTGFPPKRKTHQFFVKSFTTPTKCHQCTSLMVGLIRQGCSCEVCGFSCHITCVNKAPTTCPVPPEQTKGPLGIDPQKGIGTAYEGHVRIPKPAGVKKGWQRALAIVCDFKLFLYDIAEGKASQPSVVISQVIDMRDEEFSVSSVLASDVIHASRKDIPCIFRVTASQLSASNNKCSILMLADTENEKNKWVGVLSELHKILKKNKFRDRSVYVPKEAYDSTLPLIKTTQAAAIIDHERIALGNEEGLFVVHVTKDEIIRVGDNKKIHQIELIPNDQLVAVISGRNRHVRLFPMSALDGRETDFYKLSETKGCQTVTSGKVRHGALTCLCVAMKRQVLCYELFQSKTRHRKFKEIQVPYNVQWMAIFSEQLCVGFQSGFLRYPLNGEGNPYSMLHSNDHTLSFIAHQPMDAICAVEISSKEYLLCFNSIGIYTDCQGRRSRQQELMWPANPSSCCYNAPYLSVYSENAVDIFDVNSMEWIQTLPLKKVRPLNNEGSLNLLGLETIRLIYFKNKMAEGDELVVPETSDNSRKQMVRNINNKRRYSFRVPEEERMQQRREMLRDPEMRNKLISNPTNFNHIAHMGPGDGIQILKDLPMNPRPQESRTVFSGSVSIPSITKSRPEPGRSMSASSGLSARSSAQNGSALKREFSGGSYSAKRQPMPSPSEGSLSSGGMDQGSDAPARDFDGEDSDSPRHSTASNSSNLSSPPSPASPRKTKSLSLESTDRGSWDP
# test_description: KINOMEscan competition binding
# reported_conditions: compound 10.0 µM
assay_endpoint: kinase still bound, per cent of control

kinase still bound, per cent of control in this record for O=C1Nc2ccc(I)cc2/C1=C/c1cc(Br)c(O)c(Br)c1 : 100%

kinase still bound, per cent of control in this record for CN(C)C/C=C/C(=O)Nc1cccc(Nc2ncc3c(n2)N(C)c2ccccc2C(=O)N3C)c1 : 100%

kinase still bound, per cent of control in this record for O=C(NOC[C@H](O)CO)c1ccc(F)c(F)c1Nc1ccc(I)cc1F : 100%

kinase still bound, per cent of control in this record for O=C(O)c1ccc(Nc2ncc3c(n2)-c2ccc(Cl)cc2C(c2c(F)cccc2F)=NC3)cc1 : 84%

kinase still bound, per cent of control in this record for CCC(=O)N1CCN(c2ccc(-n3c(=O)ccc4cnc5ccc(-c6cnc7ccccc7c6)cc5c43)cc2C(F)(F)F)CC1 : 0.65%

kinase still bound, per cent of control in this record for N#Cc1c(NC(=O)c2cccc3ccccc23)sc2c1CCCC2 : 100%

---

# test_system: TLK1 (human)
# test_description: KINOMEscan competition binding
# reported_conditions: compound 10.0 µM
assay_endpoint: kinase still bound, per cent of control (%)
Report the figure in % without appending any unit label.

kinase still bound, per cent of control in this record for N#Cc1c(NC(=O)c2cccc3ccccc23)sc2c1CCCC2 : 76

kinase still bound, per cent of control in this record for O=C(NC1CC1)c1cccc(-c2ccc3c(NC(=O)C4CC4)n[nH]c3c2)c1 : 51

kinase still bound, per cent of control in this record for COc1cc(C(=O)NC2CCN(C)CC2)ccc1Nc1ncc2c(n1)N(C1CCCC1)CCC(=O)N2C(C)C : 100

kinase still bound, per cent of control in this record for COc1cc(N2CCN(C)CC2)ccc1Nc1nc(N)c(C(=O)c2c(Cl)cccc2Cl)s1 : 86

kinase still bound, per cent of control in this record for CCOc1cc2ncc(C#N)c(Nc3ccc(OCc4ccccn4)c(Cl)c3)c2cc1NC(=O)/C=C/CN(C)C : 86

kinase still bound, per cent of control in this record for C=CC(=O)Nc1cccc(Oc2nc(Nc3ccc(N4CCN(C)CC4)cc3OC)ncc2Cl)c1 : 100

kinase still bound, per cent of control in this record for OCCCNc1cc(-c2ccnc(Nc3cccc(Cl)c3)n2)ccn1 : 100

kinase still bound, per cent of control in this record for CCC(=O)N1CCN(c2ccc(-n3c(=O)ccc4cnc5ccc(-c6cnc7ccccc7c6)cc5c43)cc2C(F)(F)F)CC1 : 100

kinase still bound, per cent of control in this record for CCN1CCN(Cc2ccc(Nc3ncc4c(n3)N(C)c3ccccc3C(=O)N4C)cc2C(F)(F)F)CC1 : 74

kinase still bound, per cent of control in this record for CC[C@@H]1C(=O)N(C)c2cnc(Nc3ccc(C(=O)NC4CCN(C)CC4)cc3OC)nc2N1C1CCCC1 : 100

kinase still bound, per cent of control in this record for Cn1c(=O)n(-c2ccc(C(C)(C)C#N)cc2)c2c3cc(-c4cnc5ccccc5c4)ccc3ncc21 : 100

kinase still bound, per cent of control in this record for C=CC(=O)Nc1cccc(Nc2nc(N[C@H]3CC[C@H](N(C)C)CC3)nc3c2ncn3C(C)C)c1 : 100

kinase still bound, per cent of control in this record for C=CC(=O)Nc1cc(NC(=O)c2ccc(C)c(NC(=O)c3ccno3)c2)cc(C(F)(F)F)c1 : 100

kinase still bound, per cent of control in this record for CN(C)C/C=C/C(=O)Nc1cccc(Nc2ncc3c(n2)N(C)c2ccccc2C(=O)N3C)c1 : 100

kinase still bound, per cent of control in this record for Cc1ccc(NC(=O)c2cccc(C(C)(C)C#N)c2)cc1Nc1ccc2ncn(C)c(=O)c2c1 : 100

kinase still bound, per cent of control in this record for O=C(NOC[C@H](O)CO)c1ccc(F)c(F)c1Nc1ccc(I)cc1F : 89

kinase still bound, per cent of control in this record for Cc1ccc(C(=O)Nc2cccc(C(F)(F)F)c2)cc1Nc1cncc(C(N)=O)c1 : 100

kinase still bound, per cent of control in this record for O=C(O)c1ccc(Nc2ncc3c(n2)-c2ccc(Cl)cc2C(c2c(F)cccc2F)=NC3)cc1 : 77

kinase still bound, per cent of control in this record for C[C@@H](Oc1cc(-n2cnc3ccc(CN4CCN(C)CC4)cc32)sc1C(N)=O)c1ccccc1C(F)(F)F : 71

---

Assign kinase still bound, per cent of control to each entry below.
# test_system: CAMKK1 (human) (UniProt Q8N5S9)
# Sequence (Q8N5S9 whole entry, looked up): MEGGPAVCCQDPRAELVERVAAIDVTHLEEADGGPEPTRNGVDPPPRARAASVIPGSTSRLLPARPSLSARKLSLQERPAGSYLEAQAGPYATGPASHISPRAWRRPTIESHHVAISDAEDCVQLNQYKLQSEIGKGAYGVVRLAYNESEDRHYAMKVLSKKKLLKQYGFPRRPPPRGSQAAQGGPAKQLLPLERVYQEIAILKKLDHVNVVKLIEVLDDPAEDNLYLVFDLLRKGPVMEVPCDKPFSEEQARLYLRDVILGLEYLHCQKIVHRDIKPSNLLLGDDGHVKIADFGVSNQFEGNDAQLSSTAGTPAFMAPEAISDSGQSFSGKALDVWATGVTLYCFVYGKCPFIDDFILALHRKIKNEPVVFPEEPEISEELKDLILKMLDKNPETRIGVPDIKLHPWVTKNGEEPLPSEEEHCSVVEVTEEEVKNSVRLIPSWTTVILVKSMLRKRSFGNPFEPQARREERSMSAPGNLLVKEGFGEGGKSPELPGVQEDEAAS
# test_description: KINOMEscan competition binding
# reported_conditions: compound 10.0 µM
Report the figure in % without appending any unit label.

Summary: N#Cc1c(NC(=O)c2cccc3ccccc23)sc2c1CCCC2 , CAMKK1 (human) (UniProt Q8N5S9), kinase still bound, per cent of control = 91

Summary: CCC(=O)N1CCN(c2ccc(-n3c(=O)ccc4cnc5ccc(-c6cnc7ccccc7c6)cc5c43)cc2C(F)(F)F)CC1 , CAMKK1 (human) (UniProt Q8N5S9), kinase still bound, per cent of control = 80

Summary: C=CC(=O)Nc1cc(NC(=O)c2ccc(C)c(NC(=O)c3ccno3)c2)cc(C(F)(F)F)c1 , CAMKK1 (human) (UniProt Q8N5S9), kinase still bound, per cent of control = 96

Summary: COc1cc(N2CCN(C)CC2)ccc1Nc1nc(N)c(C(=O)c2c(Cl)cccc2Cl)s1 , CAMKK1 (human) (UniProt Q8N5S9), kinase still bound, per cent of control = 6.3

Summary: CCOc1cc2ncc(C#N)c(Nc3ccc(OCc4ccccn4)c(Cl)c3)c2cc1NC(=O)/C=C/CN(C)C , CAMKK1 (human) (UniProt Q8N5S9), kinase still bound, per cent of control = 100

Summary: O=C1Nc2ccc(I)cc2/C1=C/c1cc(Br)c(O)c(Br)c1 , CAMKK1 (human) (UniProt Q8N5S9), kinase still bound, per cent of control = 7.6

Summary: CCN1CCN(Cc2ccc(Nc3ncc4c(n3)N(C)c3ccccc3C(=O)N4C)cc2C(F)(F)F)CC1 , CAMKK1 (human) (UniProt Q8N5S9), kinase still bound, per cent of control = 79

Summary: CC[C@@H]1C(=O)N(C)c2cnc(Nc3ccc(C(=O)NC4CCN(C)CC4)cc3OC)nc2N1C1CCCC1 , CAMKK1 (human) (UniProt Q8N5S9), kinase still bound, per cent of control = 1.9

Summary: C=CC(=O)Nc1cccc(Nc2nc(N[C@H]3CC[C@H](N(C)C)CC3)nc3c2ncn3C(C)C)c1 , CAMKK1 (human) (UniProt Q8N5S9), kinase still bound, per cent of control = 40

Summary: C[C@@H](Oc1cc(-n2cnc3ccc(CN4CCN(C)CC4)cc32)sc1C(N)=O)c1ccccc1C(F)(F)F , CAMKK1 (human) (UniProt Q8N5S9), kinase still bound, per cent of control = 99

Summary: COc1cc(C(=O)NC2CCN(C)CC2)ccc1Nc1ncc2c(n1)N(C1CCCC1)CCC(=O)N2C(C)C , CAMKK1 (human) (UniProt Q8N5S9), kinase still bound, per cent of control = 100

Summary: C=CC(=O)Nc1cccc(Oc2nc(Nc3ccc(N4CCN(C)CC4)cc3OC)ncc2Cl)c1 , CAMKK1 (human) (UniProt Q8N5S9), kinase still bound, per cent of control = 18

Summary: CN(C)C/C=C/C(=O)Nc1cccc(Nc2ncc3c(n2)N(C)c2ccccc2C(=O)N3C)c1 , CAMKK1 (human) (UniProt Q8N5S9), kinase still bound, per cent of control = 39

Summary: O=C(NC1CC1)c1cccc(-c2ccc3c(NC(=O)C4CC4)n[nH]c3c2)c1 , CAMKK1 (human) (UniProt Q8N5S9), kinase still bound, per cent of control = 37

Summary: CCCS(=O)(=O)Nc1ccc(F)c(C(=O)c2c[nH]c3ncc(-c4ccc(Cl)cc4)cc23)c1F , CAMKK1 (human) (UniProt Q8N5S9), kinase still bound, per cent of control = 86

Summary: Cc1ccc(C(=O)Nc2cccc(C(F)(F)F)c2)cc1Nc1cncc(C(N)=O)c1 , CAMKK1 (human) (UniProt Q8N5S9), kinase still bound, per cent of control = 100

Summary: O=C(O)c1ccc(Nc2ncc3c(n2)-c2ccc(Cl)cc2C(c2c(F)cccc2F)=NC3)cc1 , CAMKK1 (human) (UniProt Q8N5S9), kinase still bound, per cent of control = 89

Summary: COc1cc(C(=O)NC2CCN(C)CC2)ccc1Nc1ncc2c(n1)N(C1CCCC1)C(C)CC(=O)N2C (stereo not given) , CAMKK1 (human) (UniProt Q8N5S9), kinase still bound, per cent of control = 100

Summary: Cc1ccc(NC(=O)c2cccc(C(C)(C)C#N)c2)cc1Nc1ccc2ncn(C)c(=O)c2c1 , CAMKK1 (human) (UniProt Q8N5S9), kinase still bound, per cent of control = 34

Summary: Cc1cc([C@@H](C)Nc2ccccc2C(=O)O)c2nc(N3CCOCC3)cc(=O)n2c1 , CAMKK1 (human) (UniProt Q8N5S9), kinase still bound, per cent of control = 98
